experiment: in vitro; settings: human, liver microsomes
Please assign a class to every record based on measured half-life, with ranges bottom range (below 7 min), center range (7 min to below 20 min), top range (20 min or more)

Example results:
>>> print(df.to_string())
                           molecular_string   label_class
0  CCC(CC)c1nn(CCO)c2c1N=C(c1ccc(OC)c(OC)c1)CNC2=O     top range
1  CC(C)c1nccn1-c1ccc(C2=Nc3c(C(C)(C)C)nn(CCO)c3C(=O)NC2)cc1  center range
2  CCC(CC)c1nn(CCCO)c2c1N=C(c1ccc(OC)c(OC)c1)CNC2=O     top range

Ask: Into which bin does this molecule go? "CCC(CC)c1nn(CCO)c2c1N=C(c1ccc(-n3ccnc3C)cc1)CNC2=O"
Result: bottom range

Ask: Into which bin does this molecule go? "CCC(C)(C)c1nn(CCO)c2c1N=C(c1ccc(-n3cc(C)nc3C)cc1)CNC2=O"
Result: center range

Ask: Into which bin does this molecule go? "CCC(CC)c1nn(CCCO)c2c1N=C(c1ccccc1)CNC2=O"
Result: top range

Ask: Into which bin does this molecule go? "CCC(CC)c1nn(CCCO)c2c1N=C(c1ccc(-n3ccnc3C)cc1)CNC2=O"
Result: bottom range

* * *

species on record: Homo sapiens; assay: Selectivity ratio of IC50 for PDE4 (unknown origin) to IC50 for PDE2 (unknown origin)
Exercise: for every item that follows, state its recorded Ratio IC50.
Numbers only.

                           molecular_string  observable  numeric_readout
0  CC(C)(C)c1nn(CCO)c2c1N=C(c1ccc(F)cc1)CNC2=O  Ratio IC50             0.12
1  CCC(CC)c1nn(CC)c2c1N=C(c1ccc(C(=O)O)cc1)CNC2=O  Ratio IC50           0.0015
2  CCC(CC)c1nn(CCO)c2c1N=C(c1ccc(-n3ccnc3C)cc1)CNC2=O  Ratio IC50               11
3   CCC(CC)c1nn(CCO)c2c1N=C(c1ccccc1)CNC2=O  Ratio IC50              0.7
4  CCC(CC)c1nn(CCO)c2c1N=C(c1ccc(OC)c(OC)c1)CNC2=O  Ratio IC50                2
5  CCC(CC)c1nn(CCCO)c2c1N=C(c1ccc(OC)c(OC)c1)CNC2=O  Ratio IC50                4

Consider the record given below.
Ask: Please report the recorded Ratio IC50 for "CCC(CC)c1nn(CCCO)c2c1N=C(c1ccc(-n3ccnc3C)cc1)CNC2=O" .
Result: 33

* * *

target: cGMP-dependent 3',5'-cyclic phosphodiesterase (Homo sapiens, UniProt O00408)
Sequence (O00408 whole entry): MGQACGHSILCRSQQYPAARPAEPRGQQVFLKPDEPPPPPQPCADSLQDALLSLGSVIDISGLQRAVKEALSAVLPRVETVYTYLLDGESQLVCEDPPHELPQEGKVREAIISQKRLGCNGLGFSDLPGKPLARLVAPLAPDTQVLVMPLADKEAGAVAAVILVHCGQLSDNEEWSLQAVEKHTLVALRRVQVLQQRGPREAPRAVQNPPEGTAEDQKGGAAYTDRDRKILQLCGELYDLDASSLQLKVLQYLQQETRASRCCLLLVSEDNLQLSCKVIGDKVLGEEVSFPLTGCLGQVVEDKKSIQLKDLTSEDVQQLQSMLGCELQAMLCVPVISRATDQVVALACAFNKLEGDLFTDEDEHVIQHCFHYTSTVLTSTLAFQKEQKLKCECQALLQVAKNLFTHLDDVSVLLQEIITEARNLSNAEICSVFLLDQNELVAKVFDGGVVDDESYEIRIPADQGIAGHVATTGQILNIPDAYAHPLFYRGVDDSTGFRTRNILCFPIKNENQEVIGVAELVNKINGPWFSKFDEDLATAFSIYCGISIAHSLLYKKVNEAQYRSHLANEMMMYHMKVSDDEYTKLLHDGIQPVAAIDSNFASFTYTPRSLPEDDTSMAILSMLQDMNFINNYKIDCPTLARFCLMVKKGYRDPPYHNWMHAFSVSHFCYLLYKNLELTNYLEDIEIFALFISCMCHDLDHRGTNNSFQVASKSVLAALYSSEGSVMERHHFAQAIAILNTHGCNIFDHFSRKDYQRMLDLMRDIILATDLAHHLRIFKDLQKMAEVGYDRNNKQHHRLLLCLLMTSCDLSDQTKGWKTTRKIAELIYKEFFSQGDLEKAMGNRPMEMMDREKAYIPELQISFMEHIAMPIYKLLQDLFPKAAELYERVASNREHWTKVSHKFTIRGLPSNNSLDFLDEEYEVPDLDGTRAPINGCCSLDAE
pIC50: −log10 of the molar value.
Quick rule: pIC50 of at least 7 means y, below that means n.

>>> df
                           molecular_string  label_class
0  CCC(CC)c1nn(CC)c2c1N=C(c1ccc(C(=O)O)cc1)CNC2=O            n
1  COc1ccc(Cc2nn3c([C@@H](CCc4ccccc4)[C@@H](C)O)nc(C)c3c(=O)[nH]2)cc1OO            y
2  CCC(C)(C)c1nn(CCO)c2c1N=C(c1ccc(-n3ccnc3C)cc1)CNC2=O            y
3  CCC(CC)c1nn(CCCO)c2c1N=C(c1ccc(-n3ccnc3C)cc1)CNC2=O            n

// next entry
Ask: Hello, I need to know if "CC(C)(C)c1nn(CCO)c2c1N=C(c1ccc(F)cc1)CNC2=O" has measured pIC50 not below 7. Thanks!
Result: n

* * *

target: Phosphodiesterase 4 (Homo sapiens, UniProt P27815+Q08499+Q07343+Q08493); assay: Inhibition of PDE4 (unknown origin); format: protein assay
Observable: log10(IC50) (log10 of the value in nM)
Field: value | Transform: log10 | Quantity: IC50 | Unit: nM

>>> df
                           molecular_string                       experimental_target   observable  numeric_readout
0  CCC(CC)c1nn(CCCO)c2c1N=C(c1ccc(-n3ccnc3C)cc1)CNC2=O  Phosphodiesterase 4 (Homo sapiens, UniProt P27815+Q08499+Q07343+Q08493)  log10(IC50)             4.03
1  CC(C)(C)c1nn(CCO)c2c1N=C(c1ccc(F)cc1)CNC2=O  Phosphodiesterase 4 (Homo sapiens, UniProt P27815+Q08499+Q07343+Q08493)  log10(IC50)             1.49
2  CCC(CC)c1nn(CCO)c2c1N=C(c1ccc(OC)c(OC)c1)CNC2=O  Phosphodiesterase 4 (Homo sapiens, UniProt P27815+Q08499+Q07343+Q08493)  log10(IC50)             1.68

Please state, for each entry, its recorded log10(IC50).
1. CCC(CC)c1nn(CCO)c2c1N=C(c1ccccc1)CNC2=O
2. CCC(CC)c1nn(CCCO)c2c1N=C(c1ccc(OC)c(OC)c1)CNC2=O
3. CCC(CC)c1nn(CCO)c2c1N=C(c1ccc(-n3ccnc3C)cc1)CNC2=O
4. CCC(CC)c1nn(CC)c2c1N=C(c1ccc(C(=O)O)cc1)CNC2=O

Result:
[1.88, 2.56, 2.73, 0.08]

* * *

species: Homo sapiens; test: Selectivity ratio of IC50 for PDE4B (unknown origin) to IC50 for PDE2 (unknown origin)
Exercise: for every item that follows, state its recorded Ratio IC50.

Consider the reported Ratio IC50 for these compounds:
>>> df
                           molecular_string  result
0  CCC(C)(C)c1nn(CCO)c2c1N=C(c1ccc(-n3cc(C)nc3C)cc1)CNC2=O      19
1  CC(C)c1nccn1-c1ccc(C2=Nc3c(C(C)(C)C)nn(CCO)c3C(=O)NC2)cc1       3
2  CCC(CC)c1nn(CCO)c2c1N=C(c1ccc(-n3ccnc3C)cc1)CNC2=O      11

Ask: Please report the recorded Ratio IC50 for "CCC(C)(C)c1nn(CCO)c2c1N=C(c1ccc(-n3ccnc3C)cc1)CNC2=O" .
Result: 8

* * *

IC50, cGMP-dependent 3',5'-cyclic phosphodiesterase (Homo sapiens): measured values
Give bare numbers, in nM.

Consider the reported IC50 for these molecules:
>>> print(df.to_string())
                           molecular_string                       experimental_target  result_units  numeric_readout
0  CCC(C)(C)c1nn(CCO)c2c1N=C(c1ccc(-n3cc(C)nc3C)cc1)CNC2=O  cGMP-dependent 3',5'-cyclic phosphodiesterase (Homo sapiens)            nM              105
1   CCC(CC)c1nn(CCO)c2c1N=C(c1ccccc1)CNC2=O  cGMP-dependent 3',5'-cyclic phosphodiesterase (Homo sapiens)            nM              102

Consider the record given below.
Ask: I'm curious: which IC50 was measured for "CC(C)c1nccn1-c1ccc(C2=Nc3c(C(C)(C)C)nn(CCO)c3C(=O)NC2)cc1" tested on cGMP-dependent 3',5'-cyclic phosphodiesterase (Homo sapiens)?
Result: 97

These entries and their values trace back to ChEMBL document CHEMBL2384904.
